Every entry's value here was drawn from the Human Domainome abundance scans (Beltran et al. 2025).

B1: Chromodomain-helicase-DNA-binding protein 4, residues 444 to 496; numbered along this chain, Q14839 (parent)
chain: EDDHHMEFCRVCKDGGELLCCDTCPSSYHIHCLNPPLPEIPNGEWLCPRCTCP

Variants of: B1
Assay: abundance fitness (aPCA) (normalised: wild type 0, dead -1); higher = more abundant; growth selection in yeast, the domain comes from the species named
Settings: Homo sapiens
Class assignment keyed on abundance fitness, ranges bucket 1 (below -0.7), bucket 2 (-0.7 to below -0.1), bucket 3 (-0.1 or more)

[
  {
    "mutant": "T23P",
    "assigned.label": "bucket 1"
  },
  {
    "mutant": "C9V",
    "assigned.label": "bucket 1"
  },
  {
    "mutant": "C47A",
    "assigned.label": "bucket 1"
  },
  {
    "mutant": "V11P",
    "assigned.label": "bucket 1"
  },
  {
    "mutant": "I40F",
    "assigned.label": "bucket 3"
  },
  {
    "mutant": "E1M",
    "assigned.label": "bucket 3"
  },
  {
    "mutant": "L18Y",
    "assigned.label": "bucket 1"
  },
  {
    "mutant": "P25K",
    "assigned.label": "bucket 3"
  },
  {
    "mutant": "H29R",
    "assigned.label": "bucket 1"
  },
  {
    "mutant": "T51M",
    "assigned.label": "bucket 3"
  },
  {
    "mutant": "C9P",
    "assigned.label": "bucket 1"
  },
  {
    "mutant": "T51K",
    "assigned.label": "bucket 3"
  },
  {
    "mutant": "G15D",
    "assigned.label": "bucket 2"
  },
  {
    "mutant": "D22E",
    "assigned.label": "bucket 3"
  },
  {
    "mutant": "C52W",
    "assigned.label": "bucket 3"
  },
  {
    "mutant": "P48K",
    "assigned.label": "bucket 2"
  },
  {
    "mutant": "V11N",
    "assigned.label": "bucket 2"
  },
  {
    "mutant": "L46N",
    "assigned.label": "bucket 3"
  },
  {
    "mutant": "C32Q",
    "assigned.label": "bucket 2"
  },
  {
    "mutant": "C47T",
    "assigned.label": "bucket 1"
  },
  {
    "mutant": "L33K",
    "assigned.label": "bucket 2"
  }
]
